assay: in vitro; conditions: African green monkey
Measured property: CC50 at 48 h

**Q:** Name the recorded CC50 at 48 h of the item CCN(CCO)CCCC(C)Nc1ccnc2cc(Cl)ccc12 (stereo not shown) [hydroxychloroquine] in your answer.
**A:** > 250 µM
